Target: Beta-galactosidase (Homo sapiens)
Assay: Inhibition of human beta-galactosidase expressed in mouse fibroblasts using 4-methylumbelliferone -conugated beta-D-galactoside as substrate incubated for 30 mins at pH 4.5 followed by substrate addition by fluorescence analysis
property_name: pIC50
Note: pIC50 values are expressed as the negative base-10 logarithm of concentration in M.

# compound_smiles, pIC50
rows = [
    ("Cl.O[C@@H]1[C@@H](O)[C@H](NCCc2ccccc2)C=C[C@@H]1O", 4.07),
    ("CCCCCCCCN[C@@H]1C=C(C)[C@H](O)[C@H](O)[C@H]1O", 4.34),
    ("CCCCN[C@@H]1C=C[C@H](O)[C@H](O)[C@H]1O.Cl", 4.30),
    ("CCC(CC)CN[C@@H]1C=C[C@H](O)[C@H](O)[C@H]1O.Cl", 4.82),
]

Quick one: pIC50 of "CCCCCN[C@@H]1C=C[C@H](O)[C@H](O)[C@H]1O.Cl" ?
4.72

Would you mind doing "CC(C)CCN[C@@H]1C=C[C@H](O)[C@H](O)[C@H]1O.Cl" as well?
4.55

Same lookup for "CCCCCCN[C@@H]1C=C[C@H](O)[C@H](O)[C@H]1O.Cl" , please.
4.25

// same read-out, input: "CC(C)CN[C@@H]1C=C[C@H](O)[C@H](O)[C@H]1O.Cl"
4.39

---

Biological target: Beta-galactosidase (Homo sapiens, UniProt P16278)
Sequence (P16278 whole entry): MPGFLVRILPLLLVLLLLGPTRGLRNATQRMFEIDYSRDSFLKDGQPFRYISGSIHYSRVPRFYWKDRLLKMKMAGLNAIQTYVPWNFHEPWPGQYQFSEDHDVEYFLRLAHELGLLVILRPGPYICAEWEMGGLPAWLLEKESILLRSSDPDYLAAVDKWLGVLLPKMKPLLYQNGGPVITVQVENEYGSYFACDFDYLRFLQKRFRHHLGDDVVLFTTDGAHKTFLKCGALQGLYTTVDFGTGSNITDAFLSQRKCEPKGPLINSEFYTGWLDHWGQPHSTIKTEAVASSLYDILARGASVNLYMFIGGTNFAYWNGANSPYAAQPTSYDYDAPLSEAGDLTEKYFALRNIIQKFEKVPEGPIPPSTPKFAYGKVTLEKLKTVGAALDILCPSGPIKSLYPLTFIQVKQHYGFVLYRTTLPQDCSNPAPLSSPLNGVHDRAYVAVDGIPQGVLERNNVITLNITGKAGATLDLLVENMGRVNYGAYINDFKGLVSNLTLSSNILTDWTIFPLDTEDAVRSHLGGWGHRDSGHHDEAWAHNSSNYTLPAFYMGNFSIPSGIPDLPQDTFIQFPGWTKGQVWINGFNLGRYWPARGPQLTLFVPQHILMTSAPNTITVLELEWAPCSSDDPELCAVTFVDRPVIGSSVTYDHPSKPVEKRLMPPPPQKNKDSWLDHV
Note to self: IC50 under 100 µM means fulfilled, ties and anything higher get not fulfilled.

Reference set (2 entries):
# compound_smiles, group_label
rows = [
    ("Cl.O[C@@H]1[C@@H](O)[C@H](NCC2CCCCC2)C=C[C@@H]1O", "fulfilled"),
    ("CCCCCCCCCCN[C@@H]1C=C[C@H](O)[C@H](O)[C@H]1O.Cl", "fulfilled"),
]

Is IC50 of "CCCCCCCCN[C@@H]1C=C[C@H](O)[C@H](O)[C@H]1O.Cl" strictly below 100 µM?
not fulfilled

Quick one: "Cl.O[C@@H]1[C@@H](O)[C@H](NC2CCCCC2)C=C[C@@H]1O"
not fulfilled

Would you mind doing "CCCCCCCCN[C@@H]1C=C(CO)[C@H](O)[C@H](O)[C@H]1O.Cl" as well?
fulfilled

---

Molecular target: Beta-galactosidase (Bos taurus)
Assay: Inhibition of bovine liver beta-galactosidase using p-nitrophenyl-beta-D-galactopyranoside as substrate preincubated with substrate followed by protein addition measured after 30 mins by microplate reader analysis
The source made the active and inactive calls. No cut-off for these calls is given here.

# compound_smiles, inhibition
measured = [
    ("CCCCCN[C@@H]1C=C[C@H](O)[C@H](O)[C@H]1O.Cl", "Active"),
    ("Cl.O[C@@H]1[C@@H](O)[C@H](NC2CCCCC2)C=C[C@@H]1O", "Active"),
    ("CC(C)CCN[C@@H]1C=C[C@H](O)[C@H](O)[C@H]1O.Cl", "Active"),
]
